Tested on: RWPE1 cells
protocol: MTS cell survival assay, RWPE1
Assay type: cell-based
details: Homo sapiens, RWPE-1, RWPE1 normal cells, 72 hours
observable: IC50

So what does the record say about IC50 for O=C(CCCCCCC(=O)Nc1c[nH]c(=O)[nH]c1=O)NO ?
> 300 µM

Values compiled from patent US11479534B2.
